Experiment: mn = molality of the nth substance listed, in mol/kg
Conditions: 298.15 K; 101 kPa; Liquid; m2 = 0
ASSAY_ENDPOINT: mass density (kg/m3)

INSERT INTO assay_data (compound, assay_endpoint, units_symbol, result_value) VALUES
  ('CC#N [acetonitrile] + O', 'mass density', 'kg/m3', 776.389),
  ('CCO [ethanol] + O', 'mass density', 'kg/m3', 785.207),
  ('CCCO [propan-1-ol] + O', 'mass density', 'kg/m3', 799.683),
  ('CO [methanol] + O', 'mass density', 'kg/m3', 786.66);
